- EXPERIMENTAL SYSTEM: urease (Canavalia ensiformis, UniProt P07374)
- Sequence (P07374 whole entry, looked up): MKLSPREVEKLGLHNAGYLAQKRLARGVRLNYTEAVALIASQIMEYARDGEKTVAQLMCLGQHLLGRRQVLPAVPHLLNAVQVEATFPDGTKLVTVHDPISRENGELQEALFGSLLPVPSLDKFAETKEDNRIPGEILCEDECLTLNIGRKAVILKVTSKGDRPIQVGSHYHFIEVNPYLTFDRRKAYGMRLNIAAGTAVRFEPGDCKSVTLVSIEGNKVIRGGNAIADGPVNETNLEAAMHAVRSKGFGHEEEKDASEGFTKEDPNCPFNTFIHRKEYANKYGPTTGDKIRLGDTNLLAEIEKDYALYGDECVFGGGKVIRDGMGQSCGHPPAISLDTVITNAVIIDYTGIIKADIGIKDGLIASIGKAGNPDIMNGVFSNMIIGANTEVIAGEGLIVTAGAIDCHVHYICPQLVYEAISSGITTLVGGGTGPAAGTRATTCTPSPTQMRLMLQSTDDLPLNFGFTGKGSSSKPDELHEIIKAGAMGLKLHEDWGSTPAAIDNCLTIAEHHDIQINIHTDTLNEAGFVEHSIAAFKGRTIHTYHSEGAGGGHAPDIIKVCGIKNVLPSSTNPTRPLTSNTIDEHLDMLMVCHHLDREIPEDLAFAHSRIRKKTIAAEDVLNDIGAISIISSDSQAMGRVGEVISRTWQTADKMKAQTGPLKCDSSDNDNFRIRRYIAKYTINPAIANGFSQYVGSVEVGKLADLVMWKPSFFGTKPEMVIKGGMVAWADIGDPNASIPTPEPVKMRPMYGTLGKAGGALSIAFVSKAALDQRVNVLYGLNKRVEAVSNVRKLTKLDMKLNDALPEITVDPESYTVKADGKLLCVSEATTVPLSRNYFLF
- PROCEDURE SUMMARY: biochemical
- Format: biochemical
MEASUREMENT TYPE: pIC50
Reminder that pIC50 means the negative base-10 logarithm of the concentration expressed in mol/L.

- MOLECULE: "CCCCC(=O)N(Cc1ccc(-c2ccccc2-c2nn[nH]n2)cc1)C(C(=O)Oc1ccc(CC(N)C(=O)O)cc1)C(C)C (stereo not shown)"
  NUMBER: 5.07
- MOLECULE: "CCCCC(=O)N(Cc1ccc(-c2ccccc2-c2nn[nH]n2)cc1)C(C(=O)Oc1ccccc1C(=O)O)C(C)C (stereo not shown)"
  NUMBER: 5.66
- MOLECULE: "CCCCC(=O)N(Cc1ccc(-c2ccccc2-c2nnn[nH]2)cc1)C(C(=O)Oc1ccc(N)cc1)C(C)C (stereo not shown)"
  NUMBER: 5.50

Proceed to the following item.
Prompt: Please tell me: pIC50 of CCCCC(=O)N(Cc1ccc(-c2ccccc2-c2nn[nH]n2)cc1)C(C(=O)O)C(C)C (stereo not shown) [AV0, reference compound] , system urease (Canavalia ensiformis, UniProt P07374)?
Response: 5.49
